Here, each record is paired with measured residual activity data.
targetOfAssay: ABL2 (human)
measurementNotes: radiometric filter-binding kinase assay, Kinase HotSpot
measurementContext: compound 0.5 µM; ATP 10 µM
reportedEndpoint: residual activity (%)

compound: N#CC(C#N)=C(N)/C(C#N)=C/c1ccc(O)cc1
val: 94.9

compound: CCN(CC)CCNC(=O)c1c(C)[nH]c(/C=C2\C(=O)Nc3ccc(F)cc32)c1C
val: 61.8

compound: Cc1[nH]c(/C=C2\C(=O)Nc3ccc(S(=O)(=O)N(C)c4cccc(Cl)c4)cc32)c(C)c1C(=O)N1CCN(C)CC1
val: 73.2

compound: c1ccc(-c2n[nH]cc2-c2ccnc3ccccc23)nc1
val: 67.8

compound: CNc1cc2c(Nc3cccc(Br)c3)ncnc2cn1
val: 84.8

compound: O=C1Nc2ccc(Cl)cc2/C1=C/c1cc(Cl)c(O)c(Cl)c1
val: 80.4

compound: Cc1ccc(Nc2nccc(N(C)c3ccc4c(C)n(C)nc4c3)n2)cc1S(N)(=O)=O
val: 38.5

compound: CNC(=O)c1cc(Oc2ccc(NC(=O)Nc3ccc(Cl)c(C(F)(F)F)c3)cc2)ccn1
val: 99.4

compound: CO[C@H]1CC2CC[C@@H](C)[C@@](O)(O2)C(=O)C(=O)N2CCCC[C@H]2C(=O)OC([C@H](C)C[C@@H]2CC[C@@H](O)[C@H](OC)C2)CC(=O)[C@H](C)/C=C(\C)[C@@H](O)[C@@H](OC)C(=O)[C@H](C)C[C@H](C)/C=C/C=C/C=C/1C (some centres undefined)
val: 94.2

compound: c1ccc(-c2n[nH]c3c2oc2ccccc23)cc1
val: 86.7

compound: CCN(CC)CCNC(=O)c1c(C)[nH]c(/C=C2\C(=O)Nc3ccc(Cl)cc32)c1C
val: 46.8

compound: Cc1ccc(S(=O)(=O)/C=C/C#N)cc1
val: 104

compound: O=C1NC(=O)/C(=C/c2ccc3c(c2)OC(F)(F)O3)S1
val: 96

compound: CCOC(=O)c1c(C)[nH]c(/C=C2\C(=O)Nc3ccccc32)c1C
val: 88.5

----------
targetOfAssay: CAMKK1 (human) (UniProt Q8N5S9)
Sequence (Q8N5S9 whole entry, looked up): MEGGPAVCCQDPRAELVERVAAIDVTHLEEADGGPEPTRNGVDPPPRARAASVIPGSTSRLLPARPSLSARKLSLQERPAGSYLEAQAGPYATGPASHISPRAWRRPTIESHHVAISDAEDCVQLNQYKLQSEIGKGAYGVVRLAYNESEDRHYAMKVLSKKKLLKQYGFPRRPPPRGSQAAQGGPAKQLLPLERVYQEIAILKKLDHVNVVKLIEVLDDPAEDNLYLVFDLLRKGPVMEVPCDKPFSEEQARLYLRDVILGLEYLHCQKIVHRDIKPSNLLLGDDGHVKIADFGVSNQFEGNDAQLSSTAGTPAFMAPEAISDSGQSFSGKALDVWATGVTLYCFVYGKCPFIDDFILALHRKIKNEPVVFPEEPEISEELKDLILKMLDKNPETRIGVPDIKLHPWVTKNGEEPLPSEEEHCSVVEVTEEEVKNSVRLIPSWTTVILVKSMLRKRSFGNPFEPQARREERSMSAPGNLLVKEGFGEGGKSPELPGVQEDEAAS
measurementNotes: radiometric filter-binding kinase assay, Kinase HotSpot
measurementContext: compound 0.5 µM; ATP 10 µM
reportedEndpoint: residual activity (%)

compound: CNC(=O)c1cc(Oc2ccc(NC(=O)Nc3ccc(Cl)c(C(F)(F)F)c3)cc2)ccn1
reportedEndpoint: residual activity
val: 103

compound: O=C1NC(=O)C(c2cn(CCCn3ccnc3)c3ccccc23)=C1Nc1ccccc1
reportedEndpoint: residual activity
val: 96.3

compound: CC(C)N(CCC(=O)c1ccc2ccccc2c1)Cc1ccccc1
reportedEndpoint: residual activity
val: 104

compound: N#C/C(=C(/N)Sc1ccc(N)cc1)c1ccccc1C(F)(F)F
reportedEndpoint: residual activity
val: 117

compound: COc1ccc(COc2ccc(Cc3cnc(N)nc3N)cc2OC)cc1
reportedEndpoint: residual activity
val: 115

compound: CO[C@H]1CC2CC[C@@H](C)[C@@](O)(O2)C(=O)C(=O)N2CCCC[C@H]2C(=O)OC([C@H](C)C[C@@H]2CC[C@@H](O)[C@H](OC)C2)CC(=O)[C@H](C)/C=C(\C)[C@@H](O)[C@@H](OC)C(=O)[C@H](C)C[C@H](C)/C=C/C=C/C=C/1C (some centres undefined)
reportedEndpoint: residual activity
val: 118

compound: Nc1ncnc2c1c(-c1ccc(Oc3ccccc3)cc1)cn2C1CCCC1
reportedEndpoint: residual activity
val: 99.1

compound: COc1ccc2c(c[n+](C)c3c4cc5c(cc4ccc23)OCO5)c1OC
reportedEndpoint: residual activity
val: 101

compound: Oc1cccc(-c2nc(N3CCOCC3)c3oc4ncccc4c3n2)c1
reportedEndpoint: residual activity
val: 84.6
